- assay: total protein half-life in vivo (active degradation + dilution); higher = more stable protein
- condition-label: wild type E. coli NCM3722; growth: N-lim chemostat; doubling time 6 h
endpoint-name: total protein half-life in vivo

* MPPRRYNPDTRRDELLERINLDIPGAVAQALREDLGGTVDANNDITAKLLPENSRSHATVITRENGVFCGKRWVEEVFIQLAGDDVTIIWHVDDGDVINANQSLFELEGPSRVLLTGERTALNFVQTLSGVASKVRHYVELLEGTNTQLLDTRKTLPGLRSALKYAVLCGGGANHRLGLSDAFLIKENHIIASGSVRQAVEKASWLHPDAPVEVEVENLEELDEALKAGADIIMLDNFETEQMREAVKRTNGKALLEVSGNVTDKTLREFAETGVDFISVGALTKHVQALDLSMRFR | 3.72 h
* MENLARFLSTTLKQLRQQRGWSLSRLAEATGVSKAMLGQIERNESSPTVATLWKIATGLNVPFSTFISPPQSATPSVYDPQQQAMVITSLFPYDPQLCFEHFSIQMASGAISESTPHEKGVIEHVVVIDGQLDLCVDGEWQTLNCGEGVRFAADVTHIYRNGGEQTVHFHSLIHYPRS | 4.52 h
* MQLNKVLKGLMIALPVMAIAACSSNKNASNDGSEGMLGAGTGMDANGGNGNMSSEEQARLQMQQLQQNNIVYFDLDKYDIRSDFAQMLDAHANFLRSNPSYKVTVEGHADERGTPEYNISLGERRANAVKMYLQGKGVSADQISIVSYGKEKPAVLGHDEAAYSKNRRAVLVY [P0A912] | 6.17 h
* MRSKYIVIEGLEGAGKTTARNVVVETLEQLGIRDMVFTREPGGTQLAEKLRSLVLDIKSVGDEVITDKAEVLMFYAARVQLVETVIKPALANGTWVIGDRHDLSTQAYQGGGRGIDQHMLATLRDAVLGDFRPDLTLYLDVTPEVGLKRARARGELDRIEQESFDFFNRTRARYLELAAQDKSIHTIDATQPLEAVMDAIRTTVTHWVKELDA [P0A720] | 3.93 h
* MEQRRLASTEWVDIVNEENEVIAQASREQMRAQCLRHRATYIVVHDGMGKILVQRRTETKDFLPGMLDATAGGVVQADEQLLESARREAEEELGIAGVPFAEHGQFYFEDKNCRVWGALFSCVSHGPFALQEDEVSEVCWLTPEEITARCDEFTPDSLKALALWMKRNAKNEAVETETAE | 2.85 h
* MTTRVIALDLDGTLLTPKKTLLPSSIEALARAREAGYQLIIVTGRHHVAIHPFYQALALDTPAICCNGTYLYDYHAKTVLEADPMPVIKALQLIEMLNEHHIHGLMYVDDAMVYEHPTGHVIRTSNWAQTLPPEQRPTFTQVASLAETAQQVNAVWKFALTHDDLPQLQHFGKHVEHELGLECEWSWHDQVDIARGGNSKGKRLTKWVEAQGWSMENVVAFGDNFNDISMLEAAGTGVAMGNADDAVKARANIVIGDNTTDSIAQFIYSHLI | 1.05 h
* MVSRKRNSVIYRFASLLLVLMLSACSALQGTPQPAPPVTDHPQEIRRDQTQGLQRIGSVSTMVRGSPDDALAEIKAKAVAAKADYYVVVMVDETIVTGQWYSQAILYRK | 6.05 h

---

- assay: total protein half-life in vivo (active degradation + dilution); higher = more stable protein
- condition-label: wild type E. coli NCM3722; growth: N-lim chemostat; doubling time 6 h
# label = Criterion met if total protein half-life in vivo >= 4 h else Criterion not met

• MSNQEPATILLIDDHPMLRTGVKQLISMAPDITVVGEASNGEQGIELAESLDPDLILLDLNMPGMNGLETLDKLREKSLSGRIVVFSVSNHEEDVVTALKRGADGYLLKDMEPEDLLKALHQAAAGEMVLSEALTPVLAASLRANRATTERDVNQLTPRERDILKLIAQGLPNKMIARRLDITESTVKVHVKHMLKKMKLKSRVEAAVWVHQERIF [P0AF28] = Criterion met
• MKTALLLEKLEGQLATLRQRCAPVSQFATLSARFDRHLFQTRATTLQACLDEAGDNLAALRHAVEQQQLPQVAWLAEHLAAQLEAIAREASAWSLREWDSAPPKIARWQRKRIQHQDFERRLREMVAERRARLARVTDLVEQQTLHREVEAYEARLARCRHALEKIENRLARLTR = Criterion not met
• MTPEHLPTEQYEAQLAEKVVRLQSMMAPFSDLVPEVFRSPVSHYRMRAEFRIWHDGDDLYHIIFDQQTKSRIRVDSFPAASELINQLMTAMIAGVRNNPVLRHKLFQIDYLTTLSNQAVVSLLYHKKLDDEWRQEAEALRDALRAQNLNVHLIGRATKTKIELDQDYIDERLPVAGKEMIYRQVENSFTQPNAAMNIQMLEWALDVTKGSKGDLLELYCGNGNFSLALARNFDRVLATEIAKPSVAAAQYNIAANHIDNVQIIRMAAEEFTQAMNGVREFNRLQGIDLKSYQCETIFVDPPRSGLDSETEKMVQAYPRILYISCNPETLCKNLETLSQTHKVERLALFDQFPYTHHMECGVLLTAK = Criterion met
• MKQHQSADNSQGQLYIVPTPIGNLADITQRALEVLQAVDLIAAEDTRHTGLLLQHFGINARLFALHDHNEQQKAETLLAKLQEGQNIALVSDAGTPLINDPGYHLVRTCREAGIRVVPLPGPCAAITALSAAGLPSDRFCYEGFLPAKSKGRRDALKAIEAEPRTLIFYESTHRLLDSLEDIVAVLGESRYVVLARELTKTWETIHGAPVGELLAWVKEDENRRKGEMVLIVEGHKAQEEDLPADALRTLALLQAELPLKKAAALAAEIHGVKKNALYKYALEQQG = Criterion met
• MDALSRLLMLNAPQGTIDKNCVLGSDWQLPHGAGELSVIRWHALTQGAAKLEMPTGEIFTLRPGNVVLLPQNSAHRLSHVDNESTCIVCGTLRLQHSARYFLTSLPETLFLAPVNHSVEYNWLREAIPFLQQESRSAMPGVDALCSQICATFFTLAVREWIAQVNTEKNILSLLLHPRLGAVIQQMLEMPGHAWTVESLASIAHMSRASFAQLFRDVSGTTPLAVLTKLRLQIAAQMFSRETLPVVVIAESVGYASESSFHKAFVREFGCTPGEYRERVRQLAP = Criterion met

---

- assay: total protein half-life in vivo (active degradation + dilution); higher = more stable protein
- condition-label: wild type E. coli NCM3722; growth: P-lim chemostat; doubling time 6 h
Listed here: items and their measured total protein half-life in vivo.
endpoint-name: total protein half-life in vivo (h)

- MLYIFRLIITVIYSILVCVFGSIYCLFSPRNPKHVATFGHMFGRLAPLFGLKVECRKPTDAESYGNAIYIANHQNNYDMVTASNIVQPPTVTVGKKSLLWIPFFGQLYWLTGNLLIDRNNRTKAHGTIAEVVNHFKKRRISIWMFPEGTRSRGRGLLPFKTGAFHAAIAAGVPIIPVCVSTTSNKINLNRLHNGLVIVEMLPPIDVSQYGKDQVRELAAHCRSIMEQKIAELDKEVAEREAAGKV: 6.42
- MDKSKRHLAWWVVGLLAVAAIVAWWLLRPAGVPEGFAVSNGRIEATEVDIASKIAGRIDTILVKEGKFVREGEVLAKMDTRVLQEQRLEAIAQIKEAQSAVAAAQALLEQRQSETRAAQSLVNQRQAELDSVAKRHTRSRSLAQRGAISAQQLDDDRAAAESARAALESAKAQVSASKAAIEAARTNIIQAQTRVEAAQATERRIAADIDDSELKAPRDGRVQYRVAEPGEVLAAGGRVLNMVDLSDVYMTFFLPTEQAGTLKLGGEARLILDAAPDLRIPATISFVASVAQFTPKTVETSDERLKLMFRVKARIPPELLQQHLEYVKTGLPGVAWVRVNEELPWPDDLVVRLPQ: 6.03

---

- assay: total protein half-life in vivo (active degradation + dilution); higher = more stable protein
- condition-label: wild type E. coli NCM3722; growth: C-lim chemostat; doubling time 6 h
endpoint-name: total protein half-life in vivo

• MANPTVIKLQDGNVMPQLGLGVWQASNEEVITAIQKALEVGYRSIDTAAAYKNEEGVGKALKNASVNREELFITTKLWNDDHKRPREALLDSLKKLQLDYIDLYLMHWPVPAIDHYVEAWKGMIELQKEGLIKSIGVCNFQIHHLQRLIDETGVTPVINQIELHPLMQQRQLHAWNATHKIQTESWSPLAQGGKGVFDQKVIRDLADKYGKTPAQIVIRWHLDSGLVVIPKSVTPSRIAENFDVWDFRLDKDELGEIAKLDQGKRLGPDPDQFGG = 6.23 h
• MIEILHEYWKPLLWTDGYRFTGVAITLWLLILSVVIGGVLALFLAIGRVSSNKYIQFPIWLFTYIFRGTPLYVQLLVFYSGMYTLEIVKGTEFLNAFFRSGLNCTVLALTLNTCAYTTEIFAGAIRSVPHGEIEAARAYGFSTFKMYRCIILPSALRIALPAYSNEVILMLHSTALAFTATVPDLLKIARDINAATYQPFTAFGIAAVLYLIISYVLISLFRRAEKRWLQHVKPSSTH [P0AEU3] = 5.71 h
• MTITSLDGYRWLKNDIIRGNFQPDEKLRMSLLTSRYALGVGPLREALSQLVAERLVTVVNQKGYRVASMSEQELLDIFDARANMEAMLVSLAIARGGDEWEADVLAKAHLLSKLEACDASEKMLDEWDLRHQAFHTAIVAGCGSHYLLQMRERLFDLAARYRFIWLRRTVLSVEMLEDKHDQHQTLTAAVLARDTARASELMRQHLLTPIPIIQQAMAGN = 3.69 h
• MQAEILLTLKLQQKLFADPRRISLLKHIALSGSISQGAKDAGISYKSAWDAINEMNQLSEHILVERATGGKGGGGAVLTRYGQRLIQLYDLLAQIQQKAFDVLSDDDALPLNSLLAAISRFSLQTSARNQWFGTITARDHDDVQQHVDVLLADGKTRLKVAITAQSGARLGLDEGKEVLILLKAPWVGITQDEAVAQNADNQLPGIISHIERGAEQCEVLMALPDGQTLCATVPVNEATSLQQGQNVTAYFNADSVIIATLC [P0A9G8] = 6.38 h
• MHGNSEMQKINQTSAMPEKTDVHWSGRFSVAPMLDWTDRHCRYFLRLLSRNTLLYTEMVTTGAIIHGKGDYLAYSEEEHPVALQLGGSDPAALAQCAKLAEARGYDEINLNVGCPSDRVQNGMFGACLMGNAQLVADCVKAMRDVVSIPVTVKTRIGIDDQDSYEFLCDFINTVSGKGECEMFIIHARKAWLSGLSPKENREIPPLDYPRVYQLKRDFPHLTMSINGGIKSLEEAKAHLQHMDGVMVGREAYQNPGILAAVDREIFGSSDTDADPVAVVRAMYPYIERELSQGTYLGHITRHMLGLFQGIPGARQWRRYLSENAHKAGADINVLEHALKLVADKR = 5.43 h
• MENYLIDNLDRGILEALMGNARTAYAELAKQFGVSPGTIHVRVEKMKQAGIITGARIDVSPKQLGYDVGCFIGIILKSAKDYPSALAKLESLDEVTEAYYTTGHYSIFIKVMCRSIDALQHVLINKIQTIDEIQSTETLIVLQNPIMRTIKP [P0ACI6] = 6.23 h
• MFDFASYHRAATLADAINLLADNPQAKLLAGGTDVLIQLHHHNDRYRHIVDIHNLAELRGITLAEDGSLRIGSATTFTQLIEDPITQRHLPALCAAATSIAGPQIRNVATYGGNICNGATSADSATPTLIYDAKLEIHSPRGVRFVPINGFHTGPGKVSLEHDEILVAFHFPPQPKEHAGSAHFKYAMRDAMDISTIGCAAHCRLDNGNFSELRLAFGVAAPTPIRCQHAEQTAQNAPLNLQTLEAISESVLQDVAPRSSWRASKEFRLHLIQTMTKKVISEAVAAAGGKLQ = 4.84 h
• MATIKDVAKRANVSTTTVSHVINKTRFVAEETRNAVWAAIKELHYSPSAVARSLKVNHTKSIGLLATSSEAAYFAEIIEAVEKNCFQKGYTLILGNAWNNLEKQRAYLSMMAQKRVDGLLVMCSEYPEPLLAMLEEYRHIPMVVMDWGEAKADFTDAVIDNAFEGGYMAGRYLIERGHREIGVIPGPLERNTGAGRLAGFMKAMEEAMIKVPESWIVQGDFEPESGYRAMQQILSQPHRPTAVFCGGDIMAMGALCAADEMGLRVPQDVSLIGYDNVRNARYFTPALTTIHQPKDSLGETAFNMLLDRIVNKREEPQSIEVHPRLIERRSVADGPFRDYRR [P0ACP7] = 5.87 h
• MRYHGDMLLTTPVISTLKQNYPDAKIDMLLYQDTIPILSENPEINALYGISNKGAGTFDKIKNVLSLIKTLRANNYDLVINLTDQWMVALLVRCLPARMKISQLYGHRQHGIWKKSFTHLAPIHGTHIVERNLSVLEPLGITDFYTDTTMSYAEDCWKKMRRELDALGVKDHYVVIQPTARQIFKCWDNDKFSKVIDALQQRGYQVVLTCGPSADDLACVDEIARGCETKPITGLAGKTRFPELGALIDHAVLFIGVDSAPGHIAAAVKTPVISLFGATDHVFWRPWTENIIQFWAGNYQKMPTRHELDRNKKYLSVIPAEDVIAATEKLLPEDAPSADRNAQL = 6.09 h
• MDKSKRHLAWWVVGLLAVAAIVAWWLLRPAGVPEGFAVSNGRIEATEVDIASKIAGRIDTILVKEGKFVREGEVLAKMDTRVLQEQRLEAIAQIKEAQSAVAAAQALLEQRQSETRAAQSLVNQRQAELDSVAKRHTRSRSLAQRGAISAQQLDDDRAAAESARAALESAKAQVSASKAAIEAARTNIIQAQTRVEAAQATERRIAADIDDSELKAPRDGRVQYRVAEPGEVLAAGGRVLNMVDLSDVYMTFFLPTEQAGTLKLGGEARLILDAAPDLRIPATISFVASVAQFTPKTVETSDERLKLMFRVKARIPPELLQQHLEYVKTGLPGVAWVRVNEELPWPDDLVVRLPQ = 6.21 h

Value source: the supplement of paper PMC11246515
